target: PfNT1 (Plasmodium falciparum); construct: expressed in transfected cells; host or cells: Xenopus laevis oocytes (stage V-VI), cRNA-injected; assay: cell-based; type: cell-based; settings: footnote b: highest intracellular concentration tested was 30 mM (solubility); mean ± SEM; SEM
Sequence (Q8IDM6 whole entry): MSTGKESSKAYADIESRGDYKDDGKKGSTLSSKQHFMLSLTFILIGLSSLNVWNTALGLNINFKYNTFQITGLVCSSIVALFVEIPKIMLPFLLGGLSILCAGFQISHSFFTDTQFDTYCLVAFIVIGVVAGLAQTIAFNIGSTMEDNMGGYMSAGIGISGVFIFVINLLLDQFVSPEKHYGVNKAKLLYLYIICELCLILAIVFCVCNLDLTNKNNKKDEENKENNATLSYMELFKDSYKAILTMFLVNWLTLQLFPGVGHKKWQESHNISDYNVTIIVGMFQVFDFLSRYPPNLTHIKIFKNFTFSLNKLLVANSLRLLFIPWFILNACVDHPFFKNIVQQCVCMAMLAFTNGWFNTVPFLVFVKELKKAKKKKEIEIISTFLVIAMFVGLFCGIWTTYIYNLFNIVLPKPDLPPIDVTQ
Catalogue of sequences with associated Trans-stimulation: total [3H]CQ transport, PfNT1 oocytes
measurement kind: Trans-stimulation: total [3H]CQ transport, PfNT1 oocytes

{"columns": ["sequence entry", "result"],
 "data": [
  ["VEPSDTIENVK [VK-11]", "2.7 ± 0.03b % of PfCRTDd2 control"],
  ["GTFATLSELHCDK [GK-13]", "2.6 ± 0.04b % of PfCRTDd2 control"],
  ["YFPHFDLS [YS-8]", "3.3 ± 0.08b % of PfCRTDd2 control"],
  ["VHLTPEEKSAVT [VT-12]", "2.7 ± 0.06b % of PfCRTDd2 control"],
  ["LTPEEKSAVTAL [LL-12]", "2.2 ± 0.06b % of PfCRTDd2 control"]
]}

###

biological target: PfCRT^Ecu1110 (Plasmodium falciparum, UniProt Q9N623, A220S/I356L/K76T/N326D); assay: cell-based; format: cell-based; details: trans-stimulation; [test solute]i = 5 mM (injected); PfCRT-mediated component (background subtracted), sheet title says normalised to PfCRTDd2 control; mean ± SEM; SEM
Sequence (Q9N623 whole entry A220S/I356L/K76T/N326D): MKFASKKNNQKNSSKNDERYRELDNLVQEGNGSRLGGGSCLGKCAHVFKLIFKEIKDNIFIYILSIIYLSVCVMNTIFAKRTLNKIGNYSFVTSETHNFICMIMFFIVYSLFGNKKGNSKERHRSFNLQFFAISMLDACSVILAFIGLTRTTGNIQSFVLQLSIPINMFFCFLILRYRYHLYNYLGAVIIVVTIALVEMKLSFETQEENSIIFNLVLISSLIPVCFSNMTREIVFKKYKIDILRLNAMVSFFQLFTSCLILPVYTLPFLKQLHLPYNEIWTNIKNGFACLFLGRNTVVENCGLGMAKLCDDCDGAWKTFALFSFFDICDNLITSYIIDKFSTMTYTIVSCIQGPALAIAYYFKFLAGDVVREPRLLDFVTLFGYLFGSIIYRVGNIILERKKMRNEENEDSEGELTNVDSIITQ
measurement kind: [3H]CQ transport (% PfCRTDd2 control), trans-stimulation, PfCRTEcu1110 (% PfCRTEcu1110 control)

{"columns": ["substance", "numeric result"],
 "data": [
  ["SHCLLVT [ST-7]", 39],
  ["VLSPAD [VD-6]", 30],
  ["FSDGLA [FA-6]", 30],
  ["LSFPTTK [LK-7]", 29],
  ["HAGEYG [HG-6]", 30],
  ["VDEVGG [VG-6]", 39],
  ["HVDDMP [HP-6]", 36],
  ["DMPNALS [DS-7, host-derived peptide upstream of PL-4]", 39]
]}

###

Catalogue of molecules with associated activity at 5000 µM
molecular target: PfCRT^3D7 (Plasmodium falciparum); assay: cell-based; assay type: cell-based; conditions: PfCRT3D7 oocytes; [test solute]i = 5 mM; total [3H]CQ transport, normalised to the oocyte type control; read-out: Uptake of [3H]CQ (% PfCRT3D7 control), trans-stimulation
Sequence (Q8IBZ9 59-398): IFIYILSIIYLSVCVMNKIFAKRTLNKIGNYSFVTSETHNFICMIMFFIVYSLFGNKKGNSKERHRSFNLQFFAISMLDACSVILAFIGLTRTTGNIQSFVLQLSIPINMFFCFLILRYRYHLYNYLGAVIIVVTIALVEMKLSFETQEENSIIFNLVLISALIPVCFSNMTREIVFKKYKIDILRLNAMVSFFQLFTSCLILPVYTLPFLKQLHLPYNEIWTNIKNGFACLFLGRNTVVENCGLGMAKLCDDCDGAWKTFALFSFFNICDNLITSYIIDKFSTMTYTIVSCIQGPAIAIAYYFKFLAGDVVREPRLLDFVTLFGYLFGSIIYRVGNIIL
measurement kind: activity at 5000 µM (%)

{"columns": ["molecule", "measurement kind", "numeric result"],
 "data": [
  ["C[C@H](N)C(=O)O [L-alanine]", "activity at 5000 µM", 99],
  ["N[C@@H](Cc1c[nH]c2ccccc12)C(=O)O [L-tryptophan]", "activity at 5000 µM", 100],
  ["CC[C@H](C)[C@H](N)C(=O)O [L-isoleucine]", "activity at 5000 µM", 100],
  ["N[C@@H](CCC(=O)O)C(=O)O [L-glutamic acid]", "activity at 5000 µM", 101],
  ["C[C@@H](O)[C@H](N)C(=O)O [L-threonine]", "activity at 5000 µM", 99],
  ["N[C@@H](Cc1c[nH]cn1)C(=O)O [L-histidine]", "activity at 5000 µM", 97],
  ["NC(=O)CC[C@H](N)C(=O)O [L-glutamine]", "activity at 5000 µM", 99],
  ["N[C@@H](CO)C(=O)O [L-serine]", "activity at 5000 µM", 100],
  ["N[C@@H](CS)C(=O)O [L-cysteine]", "activity at 5000 µM", 100],
  ["NCCCC[C@H](N)C(=O)O [L-lysine]", "activity at 5000 µM", 99],
  ["CC(C)C[C@H](N)C(=O)O [L-leucine]", "activity at 5000 µM", 100],
  ["CC(C)[C@H](N)C(=O)O [L-valine]", "activity at 5000 µM", 98],
  ["N[C@@H](Cc1ccccc1)C(=O)O [L-phenylalanine]", "activity at 5000 µM", 98],
  ["N=C(N)NCCC[C@H](N)C(=O)O [L-arginine]", "activity at 5000 µM", 97]
]}

Value source: paper PMC7413254
